# measurement target: recombinant human FLAP protein (Homo sapiens)
# Sequence (P20292 1-161): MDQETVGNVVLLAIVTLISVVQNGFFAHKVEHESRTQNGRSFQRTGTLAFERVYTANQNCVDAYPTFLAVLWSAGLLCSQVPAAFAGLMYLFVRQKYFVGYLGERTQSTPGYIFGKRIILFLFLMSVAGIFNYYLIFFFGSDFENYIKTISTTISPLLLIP
# protocol details: FLAP binding assay (Scintillation Proximity Assay, displacement of [125I]L-691,831)
# condition context: read-out: FLAP SPA IC50
Threshold check on IC50: strictly below 7 nM is Criterion met; on or above 7 nM is Criterion not met.

Determine if CNc1cnc(-c2ccc([C@@](C)(c3noc(-c4cnn(CC(C)(C)O)c4)n3)C3CC3)cn2)cn1 [Example 157] shows IC50 strictly lower than 7 nM. Criterion not met

Also need CC(C)[C@](C)(c1ccc(-c2cnc(N)nc2)nc1)c1noc(-c2cnn(C(C)(C)CO)c2)n1 [Example 34] , thanks. Criterion met

Also need CC(C)[C@](C)(c1ccc(-c2cnc(N)nc2)nc1)c1noc(-c2cnn(CCF)c2)n1 [Example 48] , thanks. Criterion met

Also need CCn1cc(-c2nc(C(C)(c3ccc(-c4cnc(N)nc4)nc3)C(C)C)no2)cn1 (stereo not shown) [Example 29] , thanks. Criterion met

Also need CC(C)[C@](C)(c1ccc(-c2cnc(N)nc2)nc1)c1noc(-c2cnn(CCN(C)C)c2)n1 [Example 97] , thanks. Criterion not met

Also need CC(C)[C@](C)(c1ccc(-c2cnc(N)nc2)nc1)c1noc(-c2cnn(CC(=O)N(C)CC3CCCO3)c2)n1 (stereo partly shown) [Example 146] , thanks. Criterion not met

Also need COCCn1cc(-c2nc([C@](C)(c3ccc(-c4ccc(N)nc4)nc3)C3CC3)no2)cn1 [Example 108] , thanks. Criterion not met

* * *

# measurement target: recombinant human FLAP protein (Homo sapiens)
# Construct: made in house; host or cells: Sf9 insect cells (100,000xg membrane fraction used)
# protocol details: FLAP binding assay (Scintillation Proximity Assay, displacement of [125I]L-691,831)
# condition context: read-out: FLAP SPA IC50
reported metric: pIC50
When answering, recall that pIC50 equals minus log10 of the concentration in mol/L, and write that number alone.

Requested field: pIC50. Item: "CC(C)[C@](C)(c1ccc(-c2cnc(N)nc2)nc1)c1noc(-c2cnn(CC(C)(C)O)c2)n1" 8.19

Also need CCOC(=O)C(C)(C)Cn1cc(-c2nc(C(C)(c3ccc(-c4cnc(N)nc4)nc3)C(C)C)no2)cn1 (stereo not shown) , thanks. 8.28

Also need "CC(C)[C@](C)(c1ccc(-c2cnc(N)nc2)nc1)c1noc(-c2cnn(CC(=O)NC3CC3)c2)n1" , thanks. 8.07

Also need "COCCN(C)c1cnc(-c2nc([C@@](C)(c3ccc(-c4cnc(N)nc4)nc3)C(C)C)no2)cn1" , thanks. 8.60

* * *

# measurement target: recombinant human FLAP protein (Homo sapiens)
# Construct: made in house; host or cells: Sf9 insect cells (100,000xg membrane fraction used)
# Sequence (P20292 1-161): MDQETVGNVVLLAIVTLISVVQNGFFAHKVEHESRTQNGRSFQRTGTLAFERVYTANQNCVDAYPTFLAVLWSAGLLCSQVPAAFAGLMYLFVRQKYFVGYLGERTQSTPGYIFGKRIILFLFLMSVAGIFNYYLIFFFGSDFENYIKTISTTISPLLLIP
# protocol details: FLAP binding assay (Scintillation Proximity Assay, displacement of [125I]L-691,831)
# condition context: read-out: FLAP SPA IC50
Answer each item with its documented pIC50.
When answering, recall that pIC50 equals minus log10 of the concentration in mol/L, and write that number alone.

Requested field: pIC50. Item: COCCn1cc(-c2nc([C@](C)(c3ccc(-c4cnc(N)nc4)nc3)C3CC3)no2)cn1 [Example 76] 6.72

Also need CC(C)C(C)(c1ccc(-c2cnc(N)nc2)nc1)c1noc(-c2cnn3cccnc23)n1 (stereo not shown) [Example 11] , thanks. 8.54

Also need COCCn1cc(-c2nc([C@@](C)(c3ccc(-c4cnc(N)cn4)nc3)C3CC3)no2)cn1 [Example 126] , thanks. 8.06

Also need CC(C)(O)Cn1cc(-c2nc([C@@](C)(c3ccc(-c4cnc(N)c(C#N)n4)nc3)C3CC3)no2)cn1 [Example 164] , thanks. 7.40

* * *

# measurement target: recombinant human FLAP protein (Homo sapiens)
# protocol details: FLAP binding assay (Scintillation Proximity Assay, displacement of [125I]L-691,831)
# condition context: read-out: FLAP SPA IC50
Threshold check on IC50: strictly below 30 nM is YES; on or above 30 nM is NO.

Determine if "CC(C)[C@](C)(c1ccc(-c2cnc(N)nc2)nc1)c1noc(-c2cnn(C)c2)n1" shows IC50 strictly lower than 30 nM. YES

Also need "Cn1cc(-c2nc(C(C)(C)c3ccc(-c4cnc(N)nc4)nc3)no2)cn1" , thanks. NO

Also need "CC(C)[C@](C)(c1ccc(-c2cnc(N)nc2)nc1)c1noc(-c2cnn(CC(=O)N(C)C(C)(C)C)c2)n1" , thanks. YES

Also need "CC(C)Nc1cnc(-c2nc([C@](C)(c3ccc(-c4cnc(N)nc4)nc3)C(C)C)no2)cn1" , thanks. YES

Also need CN(C)CCn1cc(-c2nc(C(C)(c3ccc(-c4ccc(N)nc4)nc3)C3CC3)no2)cn1 (stereo not shown) , thanks. NO

Also need COCCn1cc(-c2nc(C(C)(c3ccc(-c4cnc(N)nc4)nc3)C3CC3)no2)cn1 (stereo not shown) , thanks. YES

Also need Cc1ccc(-c2nc(C(C)(c3ccc(-c4cnc(N)nc4)nc3)C(C)C)no2)cn1 (stereo not shown) , thanks. YES

* * *

# measurement target: recombinant human FLAP protein (Homo sapiens, UniProt P20292)
# protocol details: FLAP binding assay (Scintillation Proximity Assay, displacement of [125I]L-691,831)
# condition context: read-out: FLAP SPA IC50
Answer each item with its documented IC50.
Give the number; nM is assumed, so skip it.

Requested field: IC50. Item: COCCn1cc(-c2nc([C@@](C)(c3ccc(-c4ccc(N)nc4)nc3)C(C)C)no2)cn1 [Example 133] 7.5

Also need CCNc1cnc(-c2nc(C(C)(c3ccc(-c4cnc(N)nc4)nc3)C(C)C)no2)cn1 (centres unmarked) [Example 12] , thanks. 3.6

Also need CC(C)[C@](C)(c1ccc(-c2cnc(N)nc2)nc1)c1noc(-c2cnn(CC(=O)NC(C)(C)C)c2)n1 [Example 141] , thanks. 8.3

Also need COCCN(C)C(=O)Cn1cc(-c2nc([C@@](C)(c3ccc(-c4cnc(N)nc4)nc3)C(C)C)no2)cn1 [Example 153] , thanks. 16

Also need COCCn1cc(-c2nc([C@@](C)(c3ccc(-c4cnc(N)nc4)nc3)C(C)C)no2)cn1 [Example 23] , thanks. 3.9

Also need CC(C)C(C)(c1ccc(-c2cnc(N)nc2)nc1)c1noc(-c2cn(CC(C)(C)O)cn2)n1 (centres unmarked) [Example 85] , thanks. 350

Also need CC(C)C(C)(c1ccc(-c2cnc(N)nc2)nc1)c1noc(-c2ccccc2)n1 (centres unmarked) [Example 71] , thanks. 8.1

Also need COCCn1cc(-c2nc([C@@](C)(c3ccc(-c4cnc(N)cn4)nc3)C(C)C)no2)cn1 [Example 104] , thanks. 5.7

* * *

# measurement target: recombinant human FLAP protein (Homo sapiens)
# Sequence (P20292 1-161): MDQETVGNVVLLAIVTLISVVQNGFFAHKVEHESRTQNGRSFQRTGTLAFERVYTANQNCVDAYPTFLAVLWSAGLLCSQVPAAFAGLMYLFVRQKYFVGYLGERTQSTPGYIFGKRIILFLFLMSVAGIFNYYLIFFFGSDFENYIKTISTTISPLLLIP
# protocol details: FLAP binding assay (Scintillation Proximity Assay, displacement of [125I]L-691,831)
# condition context: read-out: FLAP SPA IC50
pIC50: −log10 of the molar value.
Give Yes when the value for pIC50 is at least 8. Give No when it is less.

Does pIC50 meet or surpass 8 for COCCNc1cnc(-c2nc(C(C)(c3ccc(-c4cnc(N)nc4)nc3)C(C)C)no2)cn1 (stereo not shown) [Example 10] ? Yes

Also need CC(C)C(C)(c1ccc(-c2cnc(N)nc2)nc1)c1noc(-c2ccc(NCC(C)(C)O)nn2)n1 (stereo not shown) [Example 32] , thanks. No

Also need CN(C)C(=O)Cn1cc(-c2nc([C@](C)(c3ccc(-c4cnc(N)cn4)nc3)C3CC3)no2)cn1 [Example 123] , thanks. No

Also need CNc1ncc(-c2ccc([C@](C)(c3noc(-c4cnn(CC(C)(C)O)c4)n3)C3CC3)cn2)cn1 [Example 165] , thanks. No

Also need COCCOCCn1cc(-c2nc([C@](C)(c3ccc(-c4cnc(N)nc4)nc3)C(C)C)no2)cn1 [Example 47] , thanks. No

Also need CC(C)[C@@](C)(c1ccc(-c2cnc(N)nc2)nc1)c1noc(-c2cnn(CC(C)(C)O)c2)n1 [Example 37] , thanks. No
